# test-system: Glutamate NMDA receptor
# assay-method-text: Inhibition of strychnine-insensitive [3H]glycine binding to the N-methyl-D-aspartate glutamate receptor of synaptic plasma membranes(SPM) prepared from rat forebrain
measurement-kind: log10 of Ki (log10 of the value in µM)
A difference of one corresponds to tenfold Ki; all values are log10 with Ki in µM.

CC(=O)Cc1c(C(=O)O)[nH]c2ccccc12 | 1.47
O=C(O)Cc1c(C(=O)O)[nH]c2ccc(F)cc12 | 1.15
O=C(O)Cc1c(C(=O)O)[nH]c2ccc(Br)cc12 | 1.47
O=C1Cc2c([nH]c3cc(Cl)ccc23)C(=O)O1 | 1.88
CCOC(=O)Cc1c(C(=O)O)[nH]c2cc(Cl)ccc12 | -0.17

Could you tell me log10 of Ki for each of these compounds? They are listed below.
1. O=C(Cc1c(C(=O)O)[nH]c2cc(Cl)ccc12)NCCO
2. CCOCCc1c(C(=O)O)[nH]c2cc(Cl)ccc12
3. O=C(Cc1c(C(=O)O)[nH]c2cc(Cl)ccc12)NCCc1ccccc1

1: 1.01; 2: 0.92; 3: -0.20

Parameter requested: log10 of Ki. Apply to each item below.
1. CCCNC(=O)Cc1c(C(=O)O)[nH]c2cc(Cl)ccc12
2. O=C(O)Cc1c(C(=O)O)[nH]c2ccc(Cl)cc12
3. O=C(O)c1cc2cc(F)ccc2[nH]1

-0.33
1.04
1.96
